- System: HCC 2998
- assay comment: NCI tumour cell line growth inhibition, 48 h
Calls of active or inactive are those of the source. Cut-off read from the data, not from the text of the source: active = GI50 up to about 1.1 µM and inactive = higher.
Answer with one of the outcomes active, inactive

How was CC(NNC(=O)CC(=O)N(C(=O)c1ccccc1)c1ccc(Cl)cc1)c1cc2ccccc2oc1=O (stereo not given) classified in this test?
inactive

---

- Test system: OVCAR-3
- assay comment: NCI tumour cell line growth inhibition, 48 h
Calls of active or inactive are those of the source. No stated cut-off is given here; in the data, active = GI50 up to about 1.1 µM and inactive = higher.
Answer with one of the outcomes 1.0 for active, 0.0 for inactive

Past entries and their recorded results:
>  <compound>
CN1C2(c3ccccc3)C(C(=O)c3ccccc3)=C(C(=O)c3ccccc3)C1(c1ccccc1)c1c(-c3ccccc3)sc(-c3ccccc3)c12

>  <class name>
0.0

$$$$
>  <compound>
CC(=O)OC1(C)C=CC(=O)C=C1

>  <class name>
0.0

$$$$
>  <compound>
Cc1ccc(/C=C2\NC(=S)N(CN3CCCCC3)C2=O)cc1

>  <class name>
0.0

$$$$
>  <compound>
C=CCC12CC(=O)C=C1CCC1(C2)OCCO1 (stereo not given)

>  <class name>
0.0

$$$$
>  <compound>
N#Cc1cc(-c2nc3cc(F)ccc3s2)ccc1N

>  <class name>
0.0

$$$$

How was COc1cc2cccc(NC(=O)c3cc(OC)c(OC)c(OC)c3Br)c2cc1OC classified in this test?
0.0

Field entry: O=C(c1nsc(Cl)c1Cl)N1CCCCC1
0.0
